tested on: HIV-1 (H9IIIB strain); test: Cell-Based HIV Infection Assay Using a Reporter (MT4-GFP cells); details: Human immunodeficiency virus 1, inflection point (IP) of viral growth inhibition; MT4-GFP cells infected with HIV-1 H9IIIB; 50% normal human serum; mean of at least two independent experiments; read-out: Cell Based IP (50% NHS)
MEASURED_ENDPOINT: EC50 (nM)
One number for each entry, in nM.

Known EC50 results, listed for orientation:
>  <MOLECULE>
COC(=O)N[C@H](C(=O)Nc1ccc(F)c(F)c1CC[C@H]1CN[C@@H]2CCCS(=O)(=O)N1C2)[C@@H](c1ccc(F)cc1)[C@H]1CC[C@H](OC)CC1

>  <U>
nM

>  <ASSAY_VALUE>
11

$$$$
>  <MOLECULE>
N[C@H](C(=O)N[C@H]1CCCC[C@@H]1CC[C@H]1CN[C@@H]2CCCS(=O)(=O)N1C2)[C@@H](c1ccc(Cl)cc1)C1CCOCC1

>  <U>
nM

>  <ASSAY_VALUE>
13

$$$$

Input line: May I ask what EC50 has been recorded for N[C@H](C(=O)Nc1cncc(F)c1CC[C@H]1CN[C@@H]2CCCS(=O)(=O)N1C2)C1(c2ccc(Cl)cc2)CCOCC1 ?
Output line: 67
